// reported MIC per item
Tested on: Candida tropicalis
assay-comment: Antifungal activity against Candida tropicalis assessed as inhibition of fungal growth incubated for 24 hrs by CLSI based microbroth dilution method
Assay type: functional
parameter: MIC (µM)

[[record]]
structure_as_smiles = "CCCCCn1c(CCCC)nc(Cl)c1/C=N/Nc1ccc2c3c(cccc13)C(=O)N(CCO)C2=O"
measure_unit = "µM"
result = 16

[[record]]
structure_as_smiles = "O=C1c2cccc3c(N/N=C/c4ccc([N+](=O)[O-])o4)ccc(c23)C(=O)N1CCO"
measure_unit = "µM"
result = 2

[[record]]
structure_as_smiles = "O=C1c2cccc3c(N/N=C/c4cccc(O)c4)ccc(c23)C(=O)N1CCO"
measure_unit = "µM"
result = 682

[[record]]
structure_as_smiles = "CCCCCCCn1c(CCCC)nc(Cl)c1/C=N/Nc1ccc2c3c(cccc13)C(=O)N(CCO)C2=O"
measure_unit = "µM"
result = 60

[[record]]
structure_as_smiles = "CCCCc1nc(Cl)c(/C=N/Nc2ccc3c4c(cccc24)C(=O)N(CCO)C3=O)n1Cc1ccccc1F"
measure_unit = "µM"
result = 15

[[record]]
structure_as_smiles = "OC(Cn1cncn1)(Cn1cncn1)c1ccc(F)cc1F"
measure_unit = "µM"
result = 13

[[record]]
structure_as_smiles = "O=C1c2cccc3c(N/N=C/c4cnc(-c5ccccc5)s4)ccc(c23)C(=O)N1CCO"
measure_unit = "µM"
result = 87

[[record]]
structure_as_smiles = "C[n+]1ccc(/C=N/Nc2ccc3c4c(cccc24)C(=O)N(CCO)C3=O)cc1"
measure_unit = "µM"
result = 255

[[record]]
structure_as_smiles = "CCCCc1nc(Cl)c(/C=N/Nc2ccc3c4c(cccc24)C(=O)N(CCO)C3=O)n1CC(=O)OCC"
measure_unit = "µM"
result = 2

[[record]]
structure_as_smiles = "O=C1c2cccc3c(N/N=C/c4nccs4)ccc(c23)C(=O)N1CCO"
measure_unit = "µM"
result = 175

[[record]]
structure_as_smiles = "O=C1c2cccc3c(N/N=C/c4ccc[n+](Cc5ccc([N+](=O)[O-])cc5)c4)ccc(c23)C(=O)N1CCO"
measure_unit = "µM"
result = 111

[[record]]
structure_as_smiles = "C[n+]1cccc(/C=N/Nc2ccc3c4c(cccc24)C(=O)N(CCO)C3=O)c1.[I-]"
measure_unit = "µM"
result = 64

[[record]]
structure_as_smiles = "O=C1c2cccc3c(N/N=C/c4ccc[nH]4)ccc(c23)C(=O)N1CCO"
measure_unit = "µM"
result = 367

[[record]]
structure_as_smiles = "O=C1c2cccc3c(N/N=C/c4cccnc4)ccc(c23)C(=O)N1CCO"
measure_unit = "µM"
result = 355

[[record]]
structure_as_smiles = "CCCCc1nc(Cl)c(/C=N/Nc2ccc3c4c(cccc24)C(=O)N(CCO)C3=O)n1CC1CCCCC1"
measure_unit = "µM"
result = 15

[[record]]
structure_as_smiles = "CCCCCCN1C(=O)c2cccc3c(N/N=C(\\C)Cn4c([N+](=O)[O-])cnc4C)ccc(c23)C1=O"
measure_unit = "µM"
result = 1070

[[record]]
structure_as_smiles = "O=C1c2cccc3c(N/N=C/c4ccc([N+](=O)[O-])s4)ccc(c23)C(=O)N1CCO"
measure_unit = "µM"
result = 156

[[record]]
structure_as_smiles = "C/C(Cn1c([N+](=O)[O-])cnc1C)=N\\Nc1ccc2c3c(cccc13)C(=O)N(c1ccc(C(F)(F)F)cc1Cl)C2=O"
measure_unit = "µM"
result = 477

